TEST_SYSTEM: T1, human chemokine (C-C motif) receptor 8 (CCR8) (human, UniProt P51685 1-355)
T1 construct: also called hCCR8
T1 sequence (P51685 whole entry): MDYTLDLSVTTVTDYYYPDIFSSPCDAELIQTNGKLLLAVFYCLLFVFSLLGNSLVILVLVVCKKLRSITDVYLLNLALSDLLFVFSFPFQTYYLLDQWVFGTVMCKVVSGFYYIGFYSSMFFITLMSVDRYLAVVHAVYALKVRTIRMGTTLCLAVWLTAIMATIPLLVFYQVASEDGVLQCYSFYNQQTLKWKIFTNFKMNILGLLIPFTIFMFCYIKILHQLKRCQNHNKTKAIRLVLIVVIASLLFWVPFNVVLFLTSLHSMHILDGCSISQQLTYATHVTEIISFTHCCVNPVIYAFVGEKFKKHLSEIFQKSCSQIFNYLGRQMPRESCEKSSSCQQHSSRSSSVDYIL
EXPERIMENT_DESCRIPTION: flow cytometry blocking, human PBMC, CD3+ gate; % cells stained by competitor PE-L263G8 after block
Overview of recorded % Positive cells for various binders
The reply should be a number in %, with the unit left off.

BINDER: anti-CCR8 monoclonal antibody AB6 (antibody, V domains shown, also called antibody 6; clone 6) VH: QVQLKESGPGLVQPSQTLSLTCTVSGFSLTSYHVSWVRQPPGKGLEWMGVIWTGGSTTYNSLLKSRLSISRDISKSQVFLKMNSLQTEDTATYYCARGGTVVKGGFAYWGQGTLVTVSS VL: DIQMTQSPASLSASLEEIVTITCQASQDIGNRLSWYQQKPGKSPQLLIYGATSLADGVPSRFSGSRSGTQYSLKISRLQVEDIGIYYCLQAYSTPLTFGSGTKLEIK
% Positive cells (%): 6.58

BINDER: anti-CCR8 monoclonal antibody AB11 (antibody, V domains shown, Hybridoma monoclonal; also called antibody 11; clone 11) VH: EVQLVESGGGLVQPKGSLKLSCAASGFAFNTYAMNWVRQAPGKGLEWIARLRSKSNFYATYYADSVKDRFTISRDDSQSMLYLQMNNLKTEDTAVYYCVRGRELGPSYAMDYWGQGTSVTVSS VL: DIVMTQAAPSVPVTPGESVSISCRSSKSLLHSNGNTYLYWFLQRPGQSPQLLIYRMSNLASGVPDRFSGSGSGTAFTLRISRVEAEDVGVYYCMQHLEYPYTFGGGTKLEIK
% Positive cells (%): 0.43

BINDER: anti-CCR8 monoclonal antibody AB7 (antibody, V domains shown, Hybridoma monoclonal; also called antibody 7; clone 7) VH: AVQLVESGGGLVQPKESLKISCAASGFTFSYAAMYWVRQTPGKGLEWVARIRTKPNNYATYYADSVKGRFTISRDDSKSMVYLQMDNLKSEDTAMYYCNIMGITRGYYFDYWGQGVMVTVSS VL: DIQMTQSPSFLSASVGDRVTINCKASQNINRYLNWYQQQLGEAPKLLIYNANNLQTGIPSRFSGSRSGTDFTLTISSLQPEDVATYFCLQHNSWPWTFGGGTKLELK
% Positive cells (%): 1.19

As a next step, examine the binder that follows.
[ask] Look at this binder and give its reported % Positive cells. anti-CCR8 monoclonal antibody AB10 (antibody, V domains shown, Hybridoma monoclonal; also called antibody 10; clone 10) VH: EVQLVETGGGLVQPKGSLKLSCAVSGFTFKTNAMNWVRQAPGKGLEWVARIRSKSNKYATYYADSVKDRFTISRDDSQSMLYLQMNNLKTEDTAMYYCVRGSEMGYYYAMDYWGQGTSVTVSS VL: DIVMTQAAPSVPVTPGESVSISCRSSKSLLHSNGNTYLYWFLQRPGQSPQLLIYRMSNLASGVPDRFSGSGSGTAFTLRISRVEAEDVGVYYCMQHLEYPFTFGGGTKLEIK
[reply] 0.57

Numbers sourced from patent US20240360228A1.
